# testedSystem: PCSK9/LDLR (Homo sapiens, UniProt Q8NBP7)
# Sequence (Q8NBP7 31-152 limits assumed): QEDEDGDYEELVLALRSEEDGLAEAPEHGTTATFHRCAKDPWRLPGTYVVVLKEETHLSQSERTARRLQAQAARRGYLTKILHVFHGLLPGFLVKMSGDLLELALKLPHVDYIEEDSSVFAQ
# Sequence (Q8NBP7 153-692 limits assumed): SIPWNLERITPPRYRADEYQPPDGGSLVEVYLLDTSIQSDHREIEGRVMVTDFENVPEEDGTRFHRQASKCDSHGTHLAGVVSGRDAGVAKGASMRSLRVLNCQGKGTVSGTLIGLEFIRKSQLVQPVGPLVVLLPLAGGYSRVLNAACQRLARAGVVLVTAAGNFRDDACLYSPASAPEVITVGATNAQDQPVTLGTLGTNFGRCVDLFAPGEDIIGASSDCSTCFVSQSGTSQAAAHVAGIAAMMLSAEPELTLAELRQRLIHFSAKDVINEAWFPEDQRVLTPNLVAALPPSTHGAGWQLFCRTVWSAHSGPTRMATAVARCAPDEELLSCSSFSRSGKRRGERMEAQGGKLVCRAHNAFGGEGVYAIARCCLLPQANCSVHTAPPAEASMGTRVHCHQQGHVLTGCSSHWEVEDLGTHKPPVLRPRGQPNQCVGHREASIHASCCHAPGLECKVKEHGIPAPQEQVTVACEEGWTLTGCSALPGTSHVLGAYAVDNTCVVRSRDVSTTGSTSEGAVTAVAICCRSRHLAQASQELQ
# Sequence (P01130 22-860 partner limits assumed): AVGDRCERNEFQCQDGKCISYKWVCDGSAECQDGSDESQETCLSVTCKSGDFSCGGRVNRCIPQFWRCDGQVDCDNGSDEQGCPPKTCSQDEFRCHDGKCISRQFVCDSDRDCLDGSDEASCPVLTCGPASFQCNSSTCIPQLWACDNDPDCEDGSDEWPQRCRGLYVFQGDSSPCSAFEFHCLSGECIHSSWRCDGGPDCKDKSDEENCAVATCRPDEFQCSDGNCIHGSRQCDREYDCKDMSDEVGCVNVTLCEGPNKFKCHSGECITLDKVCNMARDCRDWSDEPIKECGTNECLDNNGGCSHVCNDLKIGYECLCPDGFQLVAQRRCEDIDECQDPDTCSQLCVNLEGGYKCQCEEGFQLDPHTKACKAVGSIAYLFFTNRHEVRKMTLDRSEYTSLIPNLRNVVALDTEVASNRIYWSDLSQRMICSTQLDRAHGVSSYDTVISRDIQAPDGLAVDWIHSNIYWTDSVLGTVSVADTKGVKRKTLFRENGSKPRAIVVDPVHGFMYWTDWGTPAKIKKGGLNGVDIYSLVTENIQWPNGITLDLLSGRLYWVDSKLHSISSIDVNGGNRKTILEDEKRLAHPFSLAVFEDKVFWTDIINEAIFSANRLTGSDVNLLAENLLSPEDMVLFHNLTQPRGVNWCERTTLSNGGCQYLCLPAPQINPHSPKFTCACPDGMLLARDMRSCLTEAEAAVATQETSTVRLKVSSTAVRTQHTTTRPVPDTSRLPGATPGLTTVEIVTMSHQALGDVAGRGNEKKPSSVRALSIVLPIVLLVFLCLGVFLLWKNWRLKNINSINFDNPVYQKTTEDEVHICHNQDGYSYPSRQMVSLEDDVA
# assayRemarks: Inhibition of recombinant human His-tagged PCSK9 interaction with recombinant LDLR AB domain (unknown origin) measured after 3 hrs by horseradish peroxidase-coupled TMB substrate based spectrophotometry
# Assay type: protein assay
Recorded IC50 determines the group label, using Low: < 0.8 µM; Medium: ≥ 0.8 µM and < 10 µM; High: ≥ 10 µM

Prompt: # bin lookup: classify Cc1cn(-c2cc(NC(=O)c3ccc(C)c(Oc4ccccc4)c3)cc(N3CCN(C)CC3)c2)cn1 by its IC50
Response: Low

Prompt: # bin lookup: classify Cc1cn(-c2cc(CN3CCCC[C@H]3C(N)=O)cc(NC(=O)c3ccc(C)c(Nc4nccc(-c5ccc(F)cc5)n4)c3)c2)cn1 by its IC50
Response: Medium

Prompt: # bin lookup: classify Cc1cn(-c2cc(NC(=O)c3ccc(C)c(C(=O)c4cccc(C#N)c4)c3)cc(N3CCN(C)CC3)c2)cn1 by its IC50
Response: Medium

Prompt: # bin lookup: classify Cc1cn(-c2cc(NC(=O)c3ccc(C)c(Nc4nccc(-c5ccc(F)cc5)n4)c3)cc(N3CCOCC3)c2)cn1 by its IC50
Response: High

Prompt: # bin lookup: classify Cc1cn(-c2cc(CN3CCCC[C@H]3C(=O)O)cc(NC(=O)c3ccc(C)c(Nc4nccc(-c5ccc(F)cc5)n4)c3)c2)cn1 by its IC50
Response: High

New cases:
Prompt: # bin lookup: classify Cc1cn(-c2cc(CCC(=O)O)cc(NC(=O)c3ccc(C)c(Nc4nccc(-c5ccccc5)n4)c3)c2)cn1 by its IC50
Response: Medium

Prompt: # bin lookup: classify Cc1ccc(C(=O)Nc2cc(N3CCN(C)CC3)cc(-n3cnc(C)c3)c2)cc1 by its IC50
Response: High

Prompt: # bin lookup: classify Cc1cn(-c2cc(CN3CCC[C@H](N)C3)cc(NC(=O)c3ccc(C)c(Oc4ccccc4)c3)c2)cn1 by its IC50
Response: Low

###

# assayRemarks: AUClast in CD1 mouse at 0.4 mg/kg, iv administered as cassette dose measured upto 24 hrs by LC-MS/MS analysis
# Format: ADME, organism-based
# Parameters: time < 24 hr, dose 0.4 mg/kg, route intravenous
# particulars: in vivo
Listing of recorded log10 AUC(0-t) at 24 h by entry.
Log10 applied to AUC(0-t) at 24 h; unit prior to transform: ng·h/mL.

Examples with answers:
Prompt: Recorded log10 AUC(0-t) at 24 h of Cc1cn(-c2cc(NC(=O)c3ccc(C)c(Nc4nccc(-c5ccccc5)n4)c3)cc(N3CCN(C)CC3)c2)cn1 , please.
Response: 2.28

Prompt: Recorded log10 AUC(0-t) at 24 h of Cc1cn(-c2cc(NC(=O)c3ccc(C)c(C(=O)c4cccc(C#N)c4)c3)cc(N3CCN(C)CC3)c2)cn1 , please.
Response: 1.89

Prompt: Recorded log10 AUC(0-t) at 24 h of Cc1cn(-c2cc(NC(=O)c3ccc(C)c(Oc4ccccc4)c3)cc(N3CCN(C)CC3)c2)cn1 , please.
Response: 2.53

Prompt: Recorded log10 AUC(0-t) at 24 h of Cc1cn(-c2cc(NC(=O)c3ccc(C)c(Nc4nccc(-c5ccccc5)n4)c3)cc(N3CCNCC3)c2)cn1 , please.
Response: 2.06

Prompt: Recorded log10 AUC(0-t) at 24 h of Cc1cn(-c2cc(NC(=O)c3ccc(C)c(Oc4cccc5ccncc45)c3)cc(N3CCN(C)CC3)c2)cn1 , please.
Response: 2.11

New cases:
Prompt: Recorded log10 AUC(0-t) at 24 h of Cc1cn(-c2cc(NC(=O)c3ccc(C)c(Oc4ccccc4)c3)cc(C(F)(F)F)c2)cn1 , please.
Response: 2.71

Prompt: Recorded log10 AUC(0-t) at 24 h of Cc1cn(-c2cc(CN3CCC[C@H](N)C3)cc(NC(=O)c3ccc(C)c(Nc4nccc(-c5ccc(F)cc5)n4)c3)c2)cn1 , please.
Response: 2.39

Prompt: Recorded log10 AUC(0-t) at 24 h of Cc1cn(-c2cc(CN3CCC[C@H](N)C3)cc(NC(=O)c3ccc(C)c(Oc4ccccc4)c3)c2)cn1 , please.
Response: 2.86

Prompt: Recorded log10 AUC(0-t) at 24 h of Cc1cn(-c2cc(CCS(N)(=O)=O)cc(NC(=O)c3ccc(C)c(Nc4nccc(-c5ccccc5)n4)c3)c2)cn1 , please.
Response: 1.77

Prompt: Recorded log10 AUC(0-t) at 24 h of Cc1cn(-c2cc(CN3CCN(C)CC3)cc(NC(=O)c3ccc(C)c(Nc4nccc(-c5ccccc5)n4)c3)c2)cn1 , please.
Response: 2.22

###

# assayRemarks: Clearance in CD1 mouse at 0.4 mg/kg, iv administered as cassette dose measured upto 24 hrs by LC-MS/MS analysis
# Type: ADME, organism-based
# particulars: in vivo
measuredParameter: clearance (mL/min/kg)
Your answer is read as mL/min/kg, so omit the unit and give the number.

Examples with answers:
Prompt: Recorded clearance of Cc1cn(-c2cc(NC(=O)c3ccc(C)c(Nc4nccc(-c5ccccc5)n4)c3)cc(N3CCNCC3)c2)cn1 , please.
Response: 52.5

Prompt: Recorded clearance of Cc1cn(-c2cc(CN3CCN(C)CC3)cc(NC(=O)c3ccc(C)c(Nc4nccc(-c5ccccc5)n4)c3)c2)cn1 , please.
Response: 35.7

Prompt: Recorded clearance of Cc1cn(-c2cc(NC(=O)c3ccc(C)c(Nc4nccc(-c5ccccc5)n4)c3)cc(N3CCN(C)CC3)c2)cn1 , please.
Response: 32.8

New cases:
Prompt: Recorded clearance of Cc1cn(-c2cc(CN3CCC[C@H](N)C3)cc(NC(=O)c3ccc(C)c(Oc4ccccc4)c3)c2)cn1 , please.
Response: 5

###

# assayRemarks: AUCinfinity in CD1 mouse at 0.4 mg/kg, iv administered as cassette dose measured upto 24 hrs by LC-MS/MS analysis
# Assay type: ADME, organism-based
# Set-up: dose 0.4 mg/kg, route intravenous, time infinity
# particulars: in vivo
Rule: TRUE for AUC(0-inf) not less than 200 ng·h/mL, FALSE for anything less.

Prompt: # check: AUC(0-inf) of Cc1cn(-c2cc(NC(=O)c3ccc(C)c(Oc4ccccc4)c3)cc(C(F)(F)F)c2)cn1 is greater than or equal to 200 ng·h/mL
Response: TRUE

New cases:
Prompt: # check: AUC(0-inf) of Cc1cn(-c2cc(CN3CCC[C@H](N)C3)cc(NC(=O)c3ccc(C)c(Nc4nccc(-c5ccc(F)cc5)n4)c3)c2)cn1 is greater than or equal to 200 ng·h/mL
Response: TRUE

Prompt: # check: AUC(0-inf) of Cc1cn(-c2cc(NC(=O)c3ccc(C)c(Nc4nccc(-c5ccccc5)n4)c3)cc(N3CCNCC3)c2)cn1 is greater than or equal to 200 ng·h/mL
Response: FALSE

Prompt: # check: AUC(0-inf) of Cc1cn(-c2cc(NC(=O)c3ccc(C)c(Oc4cccc5ccncc45)c3)cc(N3CCN(C)CC3)c2)cn1 is greater than or equal to 200 ng·h/mL
Response: FALSE

Prompt: # check: AUC(0-inf) of Cc1cn(-c2cc(NC(=O)c3ccc(C)c(Oc4ccccc4)c3)cc(N3CCN(C)CC3)c2)cn1 is greater than or equal to 200 ng·h/mL
Response: TRUE

###

Listing of recorded IC50 by entry.
# testedSystem: Platelet-derived growth factor receptor beta (Homo sapiens, UniProt P09619)
# Sequence (P09619 whole entry, the tested form may be a part): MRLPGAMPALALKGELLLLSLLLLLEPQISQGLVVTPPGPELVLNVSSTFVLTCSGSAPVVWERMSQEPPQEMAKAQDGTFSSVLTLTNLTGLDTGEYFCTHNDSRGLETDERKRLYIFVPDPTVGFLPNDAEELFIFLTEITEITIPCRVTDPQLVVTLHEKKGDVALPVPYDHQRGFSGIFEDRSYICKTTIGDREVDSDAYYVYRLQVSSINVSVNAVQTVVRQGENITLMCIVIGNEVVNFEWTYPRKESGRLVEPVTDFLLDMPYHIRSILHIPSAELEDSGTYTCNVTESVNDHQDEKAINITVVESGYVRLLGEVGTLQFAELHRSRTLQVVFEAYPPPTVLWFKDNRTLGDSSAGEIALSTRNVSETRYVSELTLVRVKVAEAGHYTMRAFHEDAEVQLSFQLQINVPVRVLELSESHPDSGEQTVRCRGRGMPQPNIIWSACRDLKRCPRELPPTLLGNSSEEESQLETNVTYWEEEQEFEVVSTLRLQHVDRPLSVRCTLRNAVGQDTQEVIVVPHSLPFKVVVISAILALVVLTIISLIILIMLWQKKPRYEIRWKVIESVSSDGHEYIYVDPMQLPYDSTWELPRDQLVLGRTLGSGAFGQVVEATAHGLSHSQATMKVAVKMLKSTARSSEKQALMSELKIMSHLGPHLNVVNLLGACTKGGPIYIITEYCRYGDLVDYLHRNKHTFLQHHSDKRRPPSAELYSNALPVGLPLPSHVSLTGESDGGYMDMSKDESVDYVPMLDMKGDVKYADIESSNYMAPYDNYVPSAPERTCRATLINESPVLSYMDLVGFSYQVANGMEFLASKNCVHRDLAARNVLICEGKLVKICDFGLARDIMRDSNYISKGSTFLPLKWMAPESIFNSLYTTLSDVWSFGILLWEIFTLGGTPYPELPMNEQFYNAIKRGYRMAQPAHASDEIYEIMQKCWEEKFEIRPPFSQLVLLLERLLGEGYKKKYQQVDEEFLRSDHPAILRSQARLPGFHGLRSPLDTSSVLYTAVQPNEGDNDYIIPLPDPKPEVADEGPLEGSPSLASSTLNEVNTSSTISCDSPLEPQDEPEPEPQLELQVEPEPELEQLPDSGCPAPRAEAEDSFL
# assayRemarks: Inhibition of recombinant human N-terminal GST-tagged PDGFRbeta cytoplasmic domain (557 to 1106 residues) expressed in baculovirus expression system using FAM-labelled P22 peptide as substrate preincubated for 10 mins followed by substrate addition and measured after 1 hr in presence of ATP by fluorescence assay

Prompt: Recorded IC50 of Cc1cn(-c2cc(NC(=O)c3ccc(C)c(Oc4ccccc4)c3)cc(N3CCN(C)CC3)c2)cn1 , please.
Response: 7.66 µM

Prompt: Recorded IC50 of Cc1cn(-c2cc(CN3CCC[C@H](N)C3)cc(NC(=O)c3ccc(C)c(Oc4ccccc4)c3)c2)cn1 , please.
Response: > 10 µM

Prompt: Recorded IC50 of Cc1cn(-c2cc(/C=C/C(=O)O)cc(NC(=O)c3ccc(C)c(Nc4nccc(-c5ccccc5)n4)c3)c2)cn1 , please.
Response: > 10 µM

###

# assayRemarks: Clearance in C57BL/6 mouse at 5 mg/kg, iv administered as single dose measured upto 24 hrs by LC-MS/MS analysis
# Assay type: ADME, organism-based
# particulars: in vivo
measuredParameter: clearance (mL/min/kg)
Your answer is read as mL/min/kg, so omit the unit and give the number.

Prompt: Recorded clearance of Cc1cn(-c2cc(CN3CCC[C@H](N)C3)cc(NC(=O)c3ccc(C)c(Oc4ccccc4)c3)c2)cn1 , please.
Response: 18.2

###

Listing of recorded Vd by entry.
# assayRemarks: Volume of distribution at steady state in CD1 mouse at 0.4 mg/kg, iv administered as cassette dose measured upto 24 hrs by LC-MS/MS analysis
# Assay type: ADME, organism-based
# particulars: in vivo, read-out: Vdss
Your answer is read as L/kg, so omit the unit and give the number.

Examples with answers:
Prompt: Recorded Vd of Cc1cn(-c2cc(CN3CCC[C@H](N)C3)cc(NC(=O)c3ccc(C)c(Oc4ccccc4)c3)c2)cn1 , please.
Response: 9.13

Prompt: Recorded Vd of Cc1cn(-c2cc(NC(=O)c3ccc(C)c(C(=O)c4cccc(C#N)c4)c3)cc(N3CCN(C)CC3)c2)cn1 , please.
Response: 4.7

Prompt: Recorded Vd of Cc1cn(-c2cc(NC(=O)c3ccc(C)c(Oc4ccccc4)c3)cc(C(F)(F)F)c2)cn1 , please.
Response: 1.69

Could you now look at the following molecule, please?
Prompt: Recorded Vd of Cc1cn(-c2cc(CN3CCN(C)CC3)cc(NC(=O)c3ccc(C)c(Nc4nccc(-c5ccccc5)n4)c3)c2)cn1 , please.
Response: 5.65
